# System: NCI-H460
# ASSAY PROTOCOL: Cytotoxicity against human NCI-H460 cells by SRB assay
# Assay type: functional, cell-based
Active and inactive are the calls of the source. The rule behind the calls is not given here.
READOUT LABEL: inhibition

Cc1c2c(cn1C)[C@]1(C)c3cc(Cl)ccc3N(C)[C@@H]1c1[nH]c3ccc(Cl)cc3c1-2    inactive
Cc1[nH]cc2c1-c1c([nH]c3ccc(Cl)cc13)[C@H]1N(C)c3ccc(Cl)cc3[C@@]21C    inactive
COC(=O)c1c(-c2c[nH]c3ccc(Cl)cc23)c(-c2c[nH]c3ccc(Cl)cc23)cn1C    inactive
